test_system: murine E^d MHC class II allele (Mus musculus, UniProt P01904+P01915)
Sequence (P01904 26-255): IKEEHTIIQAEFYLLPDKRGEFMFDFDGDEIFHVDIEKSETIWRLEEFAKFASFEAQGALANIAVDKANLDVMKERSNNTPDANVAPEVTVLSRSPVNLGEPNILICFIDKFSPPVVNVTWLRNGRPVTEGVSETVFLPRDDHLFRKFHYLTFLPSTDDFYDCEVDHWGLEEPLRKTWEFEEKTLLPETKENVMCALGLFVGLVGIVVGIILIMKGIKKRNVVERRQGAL
Sequence (P01915 27-264 limits assumed): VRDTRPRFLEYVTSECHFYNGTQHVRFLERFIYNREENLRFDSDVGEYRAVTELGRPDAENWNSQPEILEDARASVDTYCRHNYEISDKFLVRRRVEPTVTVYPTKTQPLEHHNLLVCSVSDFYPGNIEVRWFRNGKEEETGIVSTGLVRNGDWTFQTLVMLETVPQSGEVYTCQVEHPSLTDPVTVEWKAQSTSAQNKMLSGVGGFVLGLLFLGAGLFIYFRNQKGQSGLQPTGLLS
experiment_description: simultaneous assay, E^d allele (A20 APC, G28.C9 T hybridoma, HEL106-116; HT-2 [3H]TdR readout)
Type: cell-based
Parameters: The A20 and CH27 B cell lymphoma lines express H-2^d and H-2^k alleles, respectively; endogenous in cells; host or cells: A20 B cell lymphoma (mitomycin C-treated or paraformaldehyde-fixed)
condition_context: Table 10; AE peptide 16 μM (second value); supernatant 1:2
Under this convention, fulfilled denotes Times Baseline Response, E^d strictly below 7 and not fulfilled denotes Times Baseline Response, E^d at or above 7.

Here's what some known entries look like.
[
  {
    "substance": "Ac-YRMALPKSAK-NH2 [AE123]",
    "group_label": "not fulfilled"
  },
  {
    "substance": "Ac-ARMKLPKSAK-NH2 [AE120]",
    "group_label": "not fulfilled"
  },
  {
    "substance": "Ac-YRMKLAKSAK-NH2 [AE125]",
    "group_label": "fulfilled"
  },
  {
    "substance": "Ac-YRMKAPKSAK-NH2 [AE124]",
    "group_label": "not fulfilled"
  },
  {
    "substance": "Ac-YAMKLPKSAK-NH2 [AE121]",
    "group_label": "fulfilled"
  }
]

stdin: Given the entry Ac-YRMKLPKSAK-NH2 [AE109] , would its reported Times Baseline Response, E^d be below 7?
stdout: not fulfilled

---

test_system: murine E^d MHC class II allele (Mus musculus, UniProt P01904+P01915)
Sequence (P01904 26-255): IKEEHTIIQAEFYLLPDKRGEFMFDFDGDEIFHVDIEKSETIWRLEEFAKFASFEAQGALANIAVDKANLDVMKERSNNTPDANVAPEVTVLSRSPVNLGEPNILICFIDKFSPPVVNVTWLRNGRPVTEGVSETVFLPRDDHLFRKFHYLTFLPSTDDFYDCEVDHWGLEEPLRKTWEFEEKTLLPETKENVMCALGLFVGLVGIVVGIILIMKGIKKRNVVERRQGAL
Sequence (P01915 27-264 limits assumed): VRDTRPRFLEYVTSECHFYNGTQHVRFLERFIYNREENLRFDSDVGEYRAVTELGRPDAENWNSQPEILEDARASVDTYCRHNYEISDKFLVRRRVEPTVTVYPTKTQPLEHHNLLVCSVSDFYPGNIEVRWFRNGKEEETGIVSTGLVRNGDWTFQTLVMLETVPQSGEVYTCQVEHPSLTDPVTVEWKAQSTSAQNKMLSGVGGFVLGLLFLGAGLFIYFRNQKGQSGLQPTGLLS
experiment_description: simultaneous assay, E^d allele (A20 APC, G28.C9 T hybridoma, HEL106-116; HT-2 [3H]TdR readout)
Type: cell-based
Parameters: The A20 and CH27 B cell lymphoma lines express H-2^d and H-2^k alleles, respectively; endogenous in cells; host or cells: A20 B cell lymphoma (mitomycin C-treated or paraformaldehyde-fixed)
condition_context: Table 2; AE peptide 64 μM; 0.05 μM HEL106-116; supernatant 1:2
Kind request: treat 20 as inclusive, so Times Baseline Response, E^d at 20 or higher is 1, anything lower is 0.

[
  {
    "substance": "Ac-LDSLRMKLPKSAK-NH2 [AE153]",
    "group_label": 0
  },
  {
    "substance": "Ac-DSLRMKLPKSAK-NH2 [AE154]",
    "group_label": 0
  },
  {
    "substance": "Ac-NLQLDSLRMKLPKSAK-NH2 [AE150]",
    "group_label": 0
  }
]

stdin: hey, is Times Baseline Response, E^d for this one >= 20? Ac-LRMKLPKSAK-NH2 [AE110]
stdout: 1

stdin: Reported Times Baseline Response, E^d reaches at least 20 for Ac-LQLDSLRMKLPKSAK-NH2 [AE151] ?
stdout: 0

stdin: Textbook exercise: given the entry Ac-QLDSLRMKLPKSAK-NH2 [AE152] , state whether its Times Baseline Response, E^d is greater than or equal to 20.
stdout: 0

stdin: Item Ac-SLRMKLPKSAK-NH2 [AE155] with Times Baseline Response, E^d of 20 or above?
stdout: 1

stdin: Threshold query (Times Baseline Response, E^d >= 20) on Ac-YRMKLPKSAK-NH2 [AE109]
stdout: 1
